Test system: M. kansasii CNCTC My 235/80 (ATCC 12478)
Measurement Description: 96 well plate microdilution broth method with Alamar Blue
Assay type: cell-based
Setup Conditions: Mycobacterium kansasii, ATCC12478; Middlebrook 7H9 broth pH 6.6; read-out: MIC Mycobacterium kansasii
// values below are reported MIC
Provide only the numeric value, understood in µg/mL.

Example entries and their recorded answers appear below.
CCCCCNc1cnc(C(=O)Nc2ccc(Cl)cc2O)cn1 = 25
NNC(=O)c1ccncc1 [INH, isoniazid, reference compound] = 25
CCCCCCNc1cnc(C(=O)Nc2ccc(Cl)cc2O)cn1 = 25
CCCCCCCCNc1cnc(C(=O)Nc2ccc(O)cc2)cn1 = 6.25

Q. Item `CCCCCCCNc1cnc(C(=O)Nc2ccc(Cl)cc2O)cn1` with M. kansasii CNCTC My 235/80 (ATCC 12478) - MIC?
A. 25

----------
Test system: HepG2 cells
Measurement Description: HepG2 cytotoxicity, CellTiter 96 (MTS) assay
Format: cell-based, human
Setup Conditions: IC50 (HepG2)/MIC against Mtb H37Ra (in µM)
Measured Metric: SI, selectivity index
# print the numeric value only

Q. Name the reported SI, selectivity index value associated with the molecule `O=C(Nc1cccc(C(F)(F)F)c1)c1cnc(Cl)cn1`
A. 4.78

----------
Measured Metric: melting point

CCCNc1cnc(C(=O)Nc2ccc(C)cc2)cn1 [Compound 4a] = 168 to 169 °C
CCCCCCNc1cnc(C(=O)Nc2ccc(Cl)cc2O)cn1 [Compound 6d] = 201.7 to 204.9 °C
CCCNc1cnc(C(=O)Nc2ccc(O)cc2)cn1 [Compound 3a] = 209.3 to 215.6 °C
CCCCCCNc1cnc(C(=O)Nc2ccc(CC)cc2)cn1 [Compound 5d] = 138 to 139 °C
CCCNc1cnc(C(=O)Nc2ccc(Cl)cc2O)cn1 [Compound 6a] = 248.9 to 250 °C

Q. Which value of melting point has been reported for CCCNc1cnc(C(=O)Nc2cc(Cl)ccc2O)cn1 [Compound 7a] in the records?
A. 254 to 259 °C

Q. Then what about the compound CCCCNc1cnc(C(=O)Nc2cc(Cl)ccc2O)cn1 [Compound 7b] ?
A. 257.9 to 262.1 °C

Q. Could you do the same for CCCCNc1cnc(C(=O)Nc2cccc(C(F)(F)F)c2)cn1 [Compound 1b] , please?
A. 141 to 142 °C

----------
System: Candida albicans ATCC 24433, CCM 8320
Measurement Description: Antifungal microdilution broth method (EUCAST)
Assay type: cell-based
Setup Conditions: 48 h, read-out: MIC CA
Measured Metric: MIC

CCCNc1cnc(C(=O)Nc2ccc(O)cc2)cn1 [Compound 3a] = > 500 µM
CCCCCNc1cnc(C(=O)Nc2cccc(C(F)(F)F)c2)cn1 [Compound 1c] = > 125 µM
CCCCCCNc1cnc(C(=O)Nc2ccc(CC)cc2)cn1 [Compound 5d] = > 125 µM

Q. Which measured MIC value corresponds to CCCCCCNc1cnc(C(=O)Nc2cccc(C(F)(F)F)c2)cn1 [Compound 1d] ?
A. > 500 µM

Q. What about this compound? CCCNc1cnc(C(=O)Nc2cccc(O)c2)cn1 [Compound 2a]
A. > 125 µM

Q. Also CCCCCCNc1cnc(C(=O)Nc2ccc(O)cc2)cn1 [Compound 3d] , if possible.
A. > 500 µM

Q. What about CCCCCCCNc1cnc(C(=O)Nc2ccc(O)cc2)cn1 [Compound 3e] ?
A. > 250 µM

src = paper PMC7180572
